The reported measurements were obtained from patent US9387203B2.

Biological target: soluble guanylate cyclase (sGC) (Rattus norvegicus, UniProt P20595)
Sequence (P20595 whole entry): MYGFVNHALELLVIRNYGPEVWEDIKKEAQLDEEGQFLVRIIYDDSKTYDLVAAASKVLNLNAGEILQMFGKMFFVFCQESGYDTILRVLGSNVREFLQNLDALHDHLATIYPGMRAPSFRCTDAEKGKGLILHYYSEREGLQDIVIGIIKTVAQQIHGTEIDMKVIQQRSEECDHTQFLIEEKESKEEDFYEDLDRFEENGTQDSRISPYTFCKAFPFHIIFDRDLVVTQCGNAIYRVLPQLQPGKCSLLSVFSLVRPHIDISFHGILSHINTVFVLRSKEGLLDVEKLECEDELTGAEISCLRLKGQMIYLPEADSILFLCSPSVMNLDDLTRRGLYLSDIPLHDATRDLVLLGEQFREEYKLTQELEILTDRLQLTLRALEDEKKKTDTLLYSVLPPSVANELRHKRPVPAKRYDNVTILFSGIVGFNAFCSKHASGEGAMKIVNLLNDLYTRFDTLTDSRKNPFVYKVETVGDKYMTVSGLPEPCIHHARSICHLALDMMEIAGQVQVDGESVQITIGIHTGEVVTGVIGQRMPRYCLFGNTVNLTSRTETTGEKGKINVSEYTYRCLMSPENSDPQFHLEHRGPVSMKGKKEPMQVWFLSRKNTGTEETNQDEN
Sequence (P19686 whole entry partner): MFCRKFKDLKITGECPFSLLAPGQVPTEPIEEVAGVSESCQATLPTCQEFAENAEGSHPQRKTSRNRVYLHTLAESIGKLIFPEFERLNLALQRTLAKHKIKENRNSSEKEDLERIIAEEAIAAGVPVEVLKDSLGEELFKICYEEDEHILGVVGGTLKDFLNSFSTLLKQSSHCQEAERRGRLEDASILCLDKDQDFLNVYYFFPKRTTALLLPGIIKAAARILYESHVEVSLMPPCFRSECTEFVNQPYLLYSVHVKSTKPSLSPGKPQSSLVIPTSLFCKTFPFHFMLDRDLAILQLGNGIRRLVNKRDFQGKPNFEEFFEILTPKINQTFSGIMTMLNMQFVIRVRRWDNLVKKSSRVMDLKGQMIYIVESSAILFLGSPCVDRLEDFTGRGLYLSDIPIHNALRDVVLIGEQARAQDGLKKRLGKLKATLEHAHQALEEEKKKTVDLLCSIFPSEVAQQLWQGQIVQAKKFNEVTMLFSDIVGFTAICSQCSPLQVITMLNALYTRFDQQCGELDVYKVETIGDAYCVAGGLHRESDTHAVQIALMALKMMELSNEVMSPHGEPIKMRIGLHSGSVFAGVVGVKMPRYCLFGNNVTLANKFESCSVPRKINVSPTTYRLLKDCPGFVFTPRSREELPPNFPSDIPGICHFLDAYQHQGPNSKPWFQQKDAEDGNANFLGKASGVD
Assay: Stimulation of sGC enzyme activity (PPi detection, luciferase)
Settings: sGC enzyme in vitro; read-out: EC50 (half-maximal effective concentration), activating action at the sGC enzyme in vitro
For each record, check the reported EC50: if it is below 3 nM write class 1, else write class 0.

molecule | experimental_system | class_name
CC(C)(C)c1ccc(COc2ccccc2CCN(CCCCC(=O)O)C2CCCc3cc(C(=O)O)ccc32)cc1 (single isomer, unassigned; enantiomer 1) [Example 2] | soluble guanylate cyclase (sGC) (Rattus norvegicus, UniProt P20595) | class 1
O=C(O)CCCCN(CCc1ccccc1OCc1ccc(CCc2ccccc2)cc1)C1CCCc2cc(C(=O)O)ccc21 (centres unmarked) | soluble guanylate cyclase (sGC) (Rattus norvegicus, UniProt P20595) | class 0
CC(C)(C)c1ccc(COc2ccccc2CCN(CCCCC(=O)O)C2CCCc3cc(C(=O)O)ccc32)cc1 (single isomer, unassigned; enantiomer 2) [Example 3] | soluble guanylate cyclase (sGC) (Rattus norvegicus, UniProt P20595) | class 0
CC(C)(C)c1ccc(COc2ccccc2CCN(CCCCC(=O)O)C2CCc3cc(C(=O)O)ccc32)cc1 (centres unmarked) | soluble guanylate cyclase (sGC) (Rattus norvegicus, UniProt P20595) | class 0
